- system under test: Indoleamine 2,3-dioxygenase 1 (Homo sapiens)
- Sequence (P14902 whole entry): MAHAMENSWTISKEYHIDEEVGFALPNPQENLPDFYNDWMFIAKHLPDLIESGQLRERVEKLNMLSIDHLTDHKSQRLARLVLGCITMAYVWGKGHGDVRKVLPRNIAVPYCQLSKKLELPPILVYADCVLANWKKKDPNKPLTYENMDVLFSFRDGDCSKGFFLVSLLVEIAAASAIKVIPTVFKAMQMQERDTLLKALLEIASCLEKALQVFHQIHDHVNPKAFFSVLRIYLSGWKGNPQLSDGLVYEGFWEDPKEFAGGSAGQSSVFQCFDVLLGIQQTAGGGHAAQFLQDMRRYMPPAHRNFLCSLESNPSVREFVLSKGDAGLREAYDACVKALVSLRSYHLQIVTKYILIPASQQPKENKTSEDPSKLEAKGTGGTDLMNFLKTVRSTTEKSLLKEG
- protocol details: Inhibition of IDO1 in human A-172 cells
- Assay type: cell-based
quantity measured: pIC50
Bear in mind: pIC50 is minus log10 of a mol/L concentration; give just that figure.

Lookup: Need pIC50 of "CC1=C(CC(=O)c2sccc2Br)C(=O)c2ccccc2C1=O" , thanks.
Found: 4.42
